Data origin, for the record: the nanobody polyreactivity screen of Harvey et al. (2022)

- Assay summary: yeast display, Sf9 membrane polyspecificity reagent, FACS + sequencing; frameworks hold sequencing errors
Property measured: polyreactivity (PSR sort gate)

Sequence string: QVQLVESGGGLVQAGGSLRLSCAASGSIFSTYAMGWYRQAPGKERELVASINYSGGSTYYADSVKGRFTISRDNAKNTVYLQMNSLKPEDTAVYYCNTGPFVGFDYWGQGTQVTVSS
polyreactivity (PSR sort gate): low polyreactivity
//
Sequence string: QVQLVESGGGLVQAGGSLRLSCAASGSTFDRYAMGWYRQAPGKERELVAAISWSGGSTYYADSVKGRFTISRDNAKNTVYLQMNSLKREDTAVYYCARRYARITPVYPPLNYWGQGTQVTVSS
polyreactivity (PSR sort gate): high polyreactivity
//
Sequence string: QVQLVESGGGLVQAGGSLRLSCAASGSIFSSYAMGWYRQAPGKERELVAAITTRGDSTRYADSVKGRFTISRDNAKNTVYLQMNSLKPEHTAVYYCNARYRDPYWDSGYWGQGTQVTVSS
polyreactivity (PSR sort gate): high polyreactivity
//
Sequence string: QVQLVESGGGLVQAGGSLRLSCAASGFTFVYYAMGWYRQAPGKERELVAAISTRGGSTYYADSVKGRFTISRDNAKNTVYLQMTSLKPEDTAVYYCAARSYPPGLRFDYWGQGTQVTVSS
polyreactivity (PSR sort gate): high polyreactivity

Prompt line: polyreactivity (PSR sort gate) for QVHLVESGGGLVQAGGSLRVSCAASGSIFLDNAMGWYRQAPGKERELVADISYSGGSTYYADSVKGRFTISRDNAKNTVYLQMISLKPEDTAVYYCAAGVQLTVPPLRSSVTEYDYWGQGSQVTVSS ?
Response line: low polyreactivity
